Data provenance is PubChem BioAssay.

# method_summary: modulators of S6 phosphorylation in cells, primary screen, cell-based, A549, cytoblot, luminescence, serum-stimulated (AID 1158);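 also: serum-stimulated A549 lung adenocarcinoma cells; signal is phosphorylated S6 detected by cytoblot immunostaining with HRP secondary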
# applied_conditions: A549 phospho-S6 cytoblot, 5 h, higher = more signal
Recorded z-score for the following compounds
Note: the reply should be a number with no unit written.

Illustrative cases are given below, each with its answer.
1) CC(C)(C)OC(=O)CC[C@]1(C(=O)N2CCCCC2)COC(c2ccc(OCCCO)cc2)=N1 :: -0.515
2) CN1C(=O)C2C=CC(C(O)c3cc(C(F)(F)F)cc(C(F)(F)F)c3)N(Nc3ccccc3)C2C1=O (centres undefined) :: -0.77

input: Using the record for "COc1ccc(C#Cc2ccc3c(c2)[C@]2(C(=O)N3)[C@H](C(=O)N3CCCCCCC3)[C@H]3C(=O)O[C@H](c4ccccc4)[C@H](c4ccccc4)N3[C@@H]2c2ccc(O)cc2)cc1" , report its z-score.
output: -0.0624

input: Using the record for "CCCNC(=O)[C@@]1(Sc2ccc(C)cc2)CC(=O)N(C(C)C)[C@@H]1c1ccc(CO)cc1I" , report its z-score.
output: -0.198

====

# method_summary: P. aeruginosa biofilm formation inhibitors, primary screen, PAO1 strain, BacTiter-Glo luminescence, LB-PBS (AID 1144)
# applied_conditions: 12 h, higher = more signal
Decide by z-score: equal to or exceeding -0.4 means True, less means False.

input: Does "Cc1ccc(S[C@]2(C(=O)NCC(C)C)CC(=O)N(C3Cc4ccccc4C3)[C@@H]2c2ccc(CO)cc2I)cc1" have a reported z-score of at least -0.4?
output: True

input: Does "COCCOC(=O)N1C(=O)[C@@]2(c3cc(C#CC4=CCCCC4)ccc31)[C@H](c1ccc(O)cc1)N1[C@H](c3ccccc3)[C@H](c3ccccc3)OC(=O)[C@H]1[C@@H]2C(=O)NC[C@H](O)c1ccccc1" have a reported z-score of at least -0.4?
output: True

input: Does "CN(C)CCCC[C@@H]1NC(=O)[C@@H]2C[C@H](C(=O)O)[C@H](c3cccc(OCCO)c3)N2C1=O" have a reported z-score of at least -0.4?
output: False

input: Does "COC(=O)[C@@]1(Cc2ccc(F)cc2)[C@H]2c3cc(C(=O)N4CCCC4)n(CC4CC4)c3C[C@H]2CN1C(=O)c1ccccc1" have a reported z-score of at least -0.4?
output: True

input: Does "COc1cccc(/C=C(\C#N)C(=O)Nc2c(C)n(C)n(-c3ccccc3)c2=O)c1" have a reported z-score of at least -0.4?
output: False

input: Does O=C1C2C=CC(C(O)c3cccc(O)c3)N(Nc3ccccc3)C2C(=O)N1c1ccccc1 (configuration not stated) have a reported z-score of at least -0.4?
output: False

input: Does "C[C@@]12COC[C@]13C=C(Br)[C@H](C2)[C@@]1(CO1)C3=O" have a reported z-score of at least -0.4?
output: True

====

# method_summary: CREB reporter modulators without forskolin, primary screen, cell-based, PC12, CRE-LacZ reporter, unstimulated (AID 1145)
# applied_conditions: no forskolin, luminescence, 4.5 h, higher = more signal, called active from +8 up or from −8 down
Class field: derived from z-score; ranges low (below -0.08), mid (-0.08 to below 0.3), high (0.3 or more)

1. O=C1N[C@@H](Cc2ccccc2)C(=O)N2[C@@H]1C[C@@H](C(=O)O)[C@H]2c1ccc(O)cc1 :: high
2. C=CCC(OC(C)=O)[C@@H]1[C@@H](N(Cc2ccc(-c3cccc(C(F)(F)F)c3)o2)C(=O)c2ccc(C)cc2)c2cc(OCCCO)ccc2N1C(=O)Cc1ccc(OC)cc1 (some centres undefined) :: low
3. CCCNC(=O)[C@@]1(Sc2ccc(C)cc2)CC(=O)N(C2CCCCC2)[C@@H]1c1ccc(CO)cc1I :: mid

Turning now to a further record.
input: Lab log: "O=C1C[C@@](C(=O)NCC(F)(F)F)(c2ccc([N+](=O)[O-])cc2)[C@@H](c2ccc(CO)cc2)N1CC12CC3CC(CC(C3)C1)C2" — assign z-score category
output: high

====

# Test system: Lefty1
# method_summary: Lefty1 binders on small-molecule microarrays, primary screen, biochemical, small-molecule microarray, 635/667 nm fluorescence (AID 1139)
# applied_conditions: small-molecule microarray binding, fluorescence 635/667; higher = more signal
readout: composite z-score
Note: the reply should be a number with no unit written.

1. [N-]=[N+]=NCc1ccccc1[C@@H]1OC(c2ccc(OCCCO)cc2)=N[C@]1(Cc1ccccc1N=[N+]=[N-])C(=O)NCCN1CCOCC1 :: 0.54
2. COc1ccc(C(=O)Nc2cccc(CN3C(=O)[C@]4(O[C@H](CCn5cc([C@H](O)c6ccccc6)nn5)[C@@H]([Si](C)(C)c5ccc(OC)cc5)[C@@H]4C)c4ccccc43)c2)cc1 :: 0.752
3. C=CCN1C(=O)[C@@]2(O[C@@H](CCO)[C@H]([Si](C)(C)c3ccc(OC)cc3)[C@H]2C)c2cc(N3CCOC3=O)ccc21 :: 0.0949
4. O=C1c2ccccc2[C@](Cc2ccccc2I)(C(=O)NC2CC2)[C@H](c2ccc(CO)cc2)N1Cc1ccccc1C(F)(F)F :: 1.26
5. CC(C)OC(=O)CC(=O)CC(O)c1ccc([N+](=O)[O-])cc1 (centres undefined) :: -0.006
6. CC1(C)C(=O)C(c2ccccc2)=C2CN3C(=O)N(CCc4ccccc4)C(=O)C3(Cc3ccc(F)cc3)C=C21 (centres undefined) :: -0.784

input: Recorded composite z-score for CCN(CC)c1ccc(N2CC=CC34O[C@@H]5/C=C\CCC(C)OC(=O)C5[C@H]3C(=O)N(C(C)CO)[C@@H]4C2=O)cc1 (some centres undefined) with Lefty1, please?
output: 0.321

input: Recorded composite z-score for C=C(C)C1CCC(C(O)C2C=CC3C(=O)N(C)C(=O)C3N2Nc2cc(OC)c(OC)c(OC)c2)CC1 (centres undefined) with Lefty1, please?
output: 0.677

input: Recorded composite z-score for "O=C(N1CCOCC1)[C@@]1(CCS(=O)(=O)c2ccccc2)N=C(c2ccc(OCCCO)cc2)O[C@H]1c1ccccc1" with Lefty1, please?
output: -0.415

input: Recorded composite z-score for "CN(C)C(=O)[C@@]1(CCC(=O)OC(C)(C)C)N=C(c2ccc(OCCCO)cc2)O[C@H]1c1ccccc1CN=[N+]=[N-]" with Lefty1, please?
output: -0.597

input: Recorded composite z-score for "COCCOC(=O)N1C(=O)[C@@]2(c3cc(C#CCC(C(=O)OC)C(=O)OC)ccc31)[C@H](c1ccc(OCCO)cc1)N1[C@H](c3ccccc3)[C@H](c3ccccc3)OC(=O)[C@H]1[C@@H]2C(=O)Nc1nc2ccccc2s1" with Lefty1, please?
output: 1.06

input: Recorded composite z-score for "[N-]=[N+]=NCc1ccccc1C[C@]1(C(=O)N2CCOCC2)COC(c2ccc(OCCCO)cc2)=N1" with Lefty1, please?
output: -0.346

input: Recorded composite z-score for "CC(C)C[C@@H]1NC(=O)[C@H]2C[C@@H](C(=O)NCCCCCN)[C@@H](c3cccc(OCCO)c3)N2C1=O" with Lefty1, please?
output: -0.813

input: Recorded composite z-score for "[N-]=[N+]=Nc1ccccc1C[C@]1(C(=O)O)N=C(c2ccc(OCCCO)cc2)O[C@H]1c1ccccc1" with Lefty1, please?
output: -0.605

====

# method_summary: small-molecule binders of probe aInhba, primary screen, biochemical, small-molecule microarray, 635/667 nm fluorescence (AID 1148);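 also: score merges 667nm spot fluorescence with signal-to-noise for antibody binding to printed compounds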
# applied_conditions: higher = more signal
Decide by composite z-score: equal to or exceeding -0.1 means fulfilled, less means not fulfilled.

1. CCOC(=O)C1=C[C@@H](C(C)(C)C)N(S(=O)(=O)c2ccc(C)cc2)[C@H]1c1ccccc1 :: fulfilled
2. C=C(/C(=C/C[C@H](OC(=O)c1ccncc1)c1cccc(OCCO)c1)c1cnc2ccccc2c1)C(C)C :: fulfilled
3. Cc1ccc(S[C@]2(C(=O)NC(C)C)CC(=O)N(C(C)C)[C@@H]2c2ccc(CO)cc2I)cc1 :: not fulfilled
4. CC(=O)NCCCC[C@@H]1NC(=O)[C@@H]2C[C@H](C(=O)NCCCCCCN)[C@H](c3cccc(OCCO)c3)N2C1=O :: not fulfilled
5. CS(=O)(=O)CCOC(=O)C1=CC(CCCO)=CC(C2CC2)N(Cc2cccc(OC(F)(F)F)c2)C=C1C(=O)OCCS(C)(=O)=O (stereo not drawn) :: fulfilled
6. COCCOC(=O)N1C(=O)[C@@]2(c3cc(C#CCC(C(=O)OC)C(=O)OC)ccc31)[C@H](c1ccc(O)cc1)N1[C@H](c3ccccc3)[C@H](c3ccccc3)OC(=O)[C@H]1[C@@H]2C(=O)NC[C@H](O)c1ccccc1 :: fulfilled

input: Does COC(=O)C1=CC(CCCO)=CC(c2ccc(CN3CCCC3)cc2)N(Cc2cc3c(cc2Br)OCO3)C=C1C(=O)OC (stereo not drawn) have a reported composite z-score of at least -0.1?
output: fulfilled

input: Does "COCCCNC(=O)[C@@H]1c2ccccc2C(=O)N(C2Cc3ccccc3C2)[C@H]1c1ccc(CO)cc1" have a reported composite z-score of at least -0.1?
output: fulfilled

input: Does "CCOC(=O)C=Cc1cc(F)ccc1O" have a reported composite z-score of at least -0.1?
output: fulfilled

input: Does "COCCOC(=O)N1C(=O)[C@@]2(c3cc(C#CCCO)ccc31)[C@H](C(=O)N1CCCCCCC1)[C@H]1C(=O)O[C@H](c3ccccc3)[C@H](c3ccccc3)N1[C@@H]2c1ccccc1OCCO" have a reported composite z-score of at least -0.1?
output: fulfilled

input: Does CC(C)[C@H]1NC(=O)[C@@]23C(=O)N[C@@H](Cc4ccccc4)C2[C@H](C)[C@@]2(C)O[C@H]2C3/C=C/CCC/C=C/CNC(=O)[C@H](Cc2ccccc2)NC1=O (stereo partly drawn) have a reported composite z-score of at least -0.1?
output: not fulfilled

input: Does "COc1cccc(/C=C(\C#N)C(=O)Nc2c(C)n(C)n(-c3ccccc3)c2=O)c1" have a reported composite z-score of at least -0.1?
output: not fulfilled
